Below are ΔTm values measured for Ribosomal protein S6 kinase alpha-3 (Homo sapiens).
Could you give the number and then its unit, please?

See these solved cases before continuing.
INSERT INTO assay_data (structure_smiles_string, result) VALUES
  ('Clc1ccc(Nc2nnc(Cc3ccncc3)c3ccccc23)cc1', '-0.4 °C'),
  ('COc1cc(C[C@H]2C(=O)OC[C@@H]2Cc2ccc(OC)c(OC)c2)ccc1O', '-0.2 °C'),
  ('CCOC(=O)c1cnc2oc3ccc(O)cc3c2c1-c1ccccc1', '4.4 °C'),
  ('CCOc1cc(/C=C(\C#N)C(N)=O)cc(CSc2ccccc2)c1O', '2.1 °C');

Lab note: record ΔTm of `O=C(Nc1cccc(Nc2nccc(Nc3cccc(C(F)(F)F)c3)n2)c1)C1CC1` tested on Ribosomal protein S6 kinase alpha-3 (Homo sapiens).
4.8 °C

----------
target: UniProt:P09619
Sequence (P09619 whole entry): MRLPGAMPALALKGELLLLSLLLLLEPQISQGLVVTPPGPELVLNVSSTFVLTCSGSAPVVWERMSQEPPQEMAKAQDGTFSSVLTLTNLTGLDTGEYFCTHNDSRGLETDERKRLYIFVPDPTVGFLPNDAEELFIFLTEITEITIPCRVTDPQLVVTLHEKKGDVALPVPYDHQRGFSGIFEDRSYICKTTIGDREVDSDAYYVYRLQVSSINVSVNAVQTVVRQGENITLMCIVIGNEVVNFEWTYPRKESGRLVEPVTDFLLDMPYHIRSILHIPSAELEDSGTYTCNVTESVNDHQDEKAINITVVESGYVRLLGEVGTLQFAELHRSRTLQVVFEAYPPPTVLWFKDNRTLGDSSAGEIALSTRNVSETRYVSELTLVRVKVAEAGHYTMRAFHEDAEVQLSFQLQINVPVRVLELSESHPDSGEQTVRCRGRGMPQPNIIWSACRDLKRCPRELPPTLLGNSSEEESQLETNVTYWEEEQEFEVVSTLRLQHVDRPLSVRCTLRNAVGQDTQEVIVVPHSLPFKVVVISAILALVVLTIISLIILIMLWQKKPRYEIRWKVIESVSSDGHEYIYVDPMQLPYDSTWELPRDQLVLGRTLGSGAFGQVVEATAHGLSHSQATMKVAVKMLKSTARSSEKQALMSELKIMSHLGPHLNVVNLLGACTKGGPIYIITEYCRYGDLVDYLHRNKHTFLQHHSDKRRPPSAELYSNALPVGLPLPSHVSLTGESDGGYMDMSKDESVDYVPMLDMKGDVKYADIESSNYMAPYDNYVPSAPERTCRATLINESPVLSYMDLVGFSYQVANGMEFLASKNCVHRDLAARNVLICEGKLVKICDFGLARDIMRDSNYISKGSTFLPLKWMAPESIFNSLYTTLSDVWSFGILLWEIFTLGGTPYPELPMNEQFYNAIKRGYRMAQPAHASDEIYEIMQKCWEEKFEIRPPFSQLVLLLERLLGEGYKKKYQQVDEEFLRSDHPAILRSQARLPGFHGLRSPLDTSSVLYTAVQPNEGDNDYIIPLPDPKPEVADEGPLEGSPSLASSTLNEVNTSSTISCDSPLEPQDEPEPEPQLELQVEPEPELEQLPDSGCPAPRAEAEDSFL
Measured quantity: pIC50
Interpret pIC50 as the negative base-10 log of the concentration measured in mol/L.

Lab note: record pIC50 of `N#CCCc1ccc2c(c1)-c1[nH]c3ccc([N+](=O)[O-])cc3c1CC(=O)N2` tested on UniProt:P09619.
6.50

----------
assay: Inhibition of TNFalpha release in human peripheral blood mononuclear cells; assay type: functional
Measured quantity: IC50 (µM)
Report the figure in µM without appending any unit label.

Specify measured IC50 for C[S+]([O-])c1ccc(CSc2nc(-c3ccc(F)cc3)c(-c3ccncc3)[nH]2)cc1 (stereo unspecified) .
3.65

----------
Below are ΔTm values measured for Serine/threonine-protein kinase 38 (Homo sapiens).
Report the figure in °C without appending any unit label.

INSERT INTO assay_data (molecule, measured_target, measured_quantity, unit_annotation, quantitative_result) VALUES
  ('O=C1Cc2c([nH]c3ccc(Br)cc23)-c2ccccc2N1', 'Serine/threonine-protein kinase 38 (Homo sapiens)', 'ΔTm', '°C', 1.1),
  ('Cc1nc2sccn2c(=O)c1CCN1CCC(=C(c2ccccc2)c2ccc(F)cc2)CC1', 'Serine/threonine-protein kinase 38 (Homo sapiens)', 'ΔTm', '°C', 0.6),
  ('Cc1cncc2cccc(S(=O)(=O)N3CCCNC[C@@H]3C)c12', 'Serine/threonine-protein kinase 38 (Homo sapiens)', 'ΔTm', '°C', 0.6);

Lab note: record ΔTm of `c1ccc(-c2n[nH]c3c2oc2ccccc23)cc1` tested on Serine/threonine-protein kinase 38 (Homo sapiens).
1.4

Lab note: record ΔTm of `OC[C@H]1O[C@@H](n2cnc3cc(Cl)c(Cl)cc32)[C@H](O)[C@@H]1O` tested on Serine/threonine-protein kinase 38 (Homo sapiens).
0.2

Lab note: record ΔTm of `Cn1cc(C2=C(c3cn(CCCN)c4ccccc34)C(=O)NC2=O)c2ccccc21` tested on Serine/threonine-protein kinase 38 (Homo sapiens).
0.2

Lab note: record ΔTm of `COc1ccc(Cl)cc1NC(=O)Nc1cc(C)nc2ccccc12` tested on Serine/threonine-protein kinase 38 (Homo sapiens).
0.1

----------
Below are ΔTm values measured for Ribosomal protein S6 kinase alpha-3 (Homo sapiens) (UniProt P51812).
Report the figure in °C without appending any unit label.

See these solved cases before continuing.
INSERT INTO results (molecule, unit_annotation, quantitative_result) VALUES
  ('O=C1Nc2cc(Br)ccc2/C1=C1/Nc2ccccc2/C1=N\O', '°C', 0.8),
  ('Cn1cc(C2=C(c3cn(CCCN)c4ccccc34)C(=O)NC2=O)c2ccccc21', '°C', 8.1),
  ('O=c1c(-c2ccc(O)cc2)coc2cc(O)cc(O)c12', '°C', 0.2),
  ('Brc1c(Br)c(Br)c2[nH]nnc2c1Br', '°C', 1.5),
  ('NS(=O)(=O)c1ccc(Nc2nc(OCC3CCCCC3)c3nc[nH]c3n2)cc1', '°C', 1.3),
  ('O=C1Cc2c([nH]c3ccc([N+](=O)[O-])cc23)-c2ccccc2N1', '°C', 2.4),
  ('O=C1NC(=O)c2c1c1c3ccccc3[nH]c1n1cncc21 [ISOGRANULATIMIDE]', '°C', 5.2),
  ('COc1cc2ncnc(Nc3cccc(O)c3)c2cc1OC', '°C', 0.9);

Lab note: record ΔTm of `N#C/C(=C\c1ccc(O)c(O)c1)C(=O)Nc1ccccc1` tested on Ribosomal protein S6 kinase alpha-3 (Homo sapiens) (UniProt P51812).
Sequence (P51812 whole entry): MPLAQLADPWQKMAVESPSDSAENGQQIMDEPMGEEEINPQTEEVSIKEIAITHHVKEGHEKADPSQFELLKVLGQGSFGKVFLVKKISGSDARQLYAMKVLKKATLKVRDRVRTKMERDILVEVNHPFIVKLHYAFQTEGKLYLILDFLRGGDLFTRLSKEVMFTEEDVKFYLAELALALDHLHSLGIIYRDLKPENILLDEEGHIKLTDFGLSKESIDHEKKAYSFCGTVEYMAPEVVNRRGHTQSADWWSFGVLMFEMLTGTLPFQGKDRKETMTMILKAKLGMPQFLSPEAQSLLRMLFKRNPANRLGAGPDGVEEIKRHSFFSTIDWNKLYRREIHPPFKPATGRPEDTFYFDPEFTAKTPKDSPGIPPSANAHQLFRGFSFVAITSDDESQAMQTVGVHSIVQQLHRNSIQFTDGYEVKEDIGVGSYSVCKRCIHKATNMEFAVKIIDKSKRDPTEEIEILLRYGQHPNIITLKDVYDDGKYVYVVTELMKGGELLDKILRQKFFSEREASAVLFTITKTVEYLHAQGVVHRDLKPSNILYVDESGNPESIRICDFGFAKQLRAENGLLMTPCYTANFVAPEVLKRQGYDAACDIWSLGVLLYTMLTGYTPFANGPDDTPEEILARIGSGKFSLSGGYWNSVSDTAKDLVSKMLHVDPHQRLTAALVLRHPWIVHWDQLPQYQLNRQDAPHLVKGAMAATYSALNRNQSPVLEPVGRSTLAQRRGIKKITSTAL
0.8

Lab note: record ΔTm of `NC(=O)c1ccc2[nH]c(-c3ccc(Oc4ccc(Cl)cc4)cc3)nc2c1` tested on Ribosomal protein S6 kinase alpha-3 (Homo sapiens) (UniProt P51812).
0.7

Lab note: record ΔTm of CN(C)CC1CCn2c(c(C3=C(c4c[nH]c5ccccc45)C(=O)NC3=O)c3ccccc32)C1 (stereo not given) tested on Ribosomal protein S6 kinase alpha-3 (Homo sapiens) (UniProt P51812).
7.4

Lab note: record ΔTm of `COC1=C2C[C@@H](C)C[C@H](OC)[C@H](O)[C@@H](C)/C=C(\C)[C@H](OC(N)=O)[C@@H](OC)/C=C\C=C(/C)C(=O)NC(=CC1=O)C2=O` tested on Ribosomal protein S6 kinase alpha-3 (Homo sapiens) (UniProt P51812).
0.2

Lab note: record ΔTm of `NC1=NC(=O)/C(=C2\CCNC(=O)c3[nH]c(Br)cc32)N1` tested on Ribosomal protein S6 kinase alpha-3 (Homo sapiens) (UniProt P51812).
4.2

Lab note: record ΔTm of `CCOC(=O)c1c(C)[nH]c(/C=C2\C(=O)Nc3ccccc32)c1C` tested on Ribosomal protein S6 kinase alpha-3 (Homo sapiens) (UniProt P51812).
3

Lab note: record ΔTm of `COc1cccc(-c2cc(=O)c3ccccc3o2)c1N` tested on Ribosomal protein S6 kinase alpha-3 (Homo sapiens) (UniProt P51812).
-0.1

Lab note: record ΔTm of `O=S(=O)(c1cccc2c(Cl)cccc12)N1CCCNCC1` tested on Ribosomal protein S6 kinase alpha-3 (Homo sapiens) (UniProt P51812).
0.5

Lab note: record ΔTm of `N=C(N)NCCNS(=O)(=O)c1cccc2cnccc12` tested on Ribosomal protein S6 kinase alpha-3 (Homo sapiens) (UniProt P51812).
0.4
